Data origin, for the record: patent US20260049134A1

target: T1, PTPRG, endogenous in H929 multiple myeloma cells (human, UniProt P23470 20-1445); assay: flow cytometry, H929 + vehicle; None 513
T1 construct: Native protein on H929 cells (flow cytometry, siRNA knockdown) and in H929 lysates (IP/MS); also called phosphatase receptor type γ
T1 sequence (P23470 20-1445 limits assumed): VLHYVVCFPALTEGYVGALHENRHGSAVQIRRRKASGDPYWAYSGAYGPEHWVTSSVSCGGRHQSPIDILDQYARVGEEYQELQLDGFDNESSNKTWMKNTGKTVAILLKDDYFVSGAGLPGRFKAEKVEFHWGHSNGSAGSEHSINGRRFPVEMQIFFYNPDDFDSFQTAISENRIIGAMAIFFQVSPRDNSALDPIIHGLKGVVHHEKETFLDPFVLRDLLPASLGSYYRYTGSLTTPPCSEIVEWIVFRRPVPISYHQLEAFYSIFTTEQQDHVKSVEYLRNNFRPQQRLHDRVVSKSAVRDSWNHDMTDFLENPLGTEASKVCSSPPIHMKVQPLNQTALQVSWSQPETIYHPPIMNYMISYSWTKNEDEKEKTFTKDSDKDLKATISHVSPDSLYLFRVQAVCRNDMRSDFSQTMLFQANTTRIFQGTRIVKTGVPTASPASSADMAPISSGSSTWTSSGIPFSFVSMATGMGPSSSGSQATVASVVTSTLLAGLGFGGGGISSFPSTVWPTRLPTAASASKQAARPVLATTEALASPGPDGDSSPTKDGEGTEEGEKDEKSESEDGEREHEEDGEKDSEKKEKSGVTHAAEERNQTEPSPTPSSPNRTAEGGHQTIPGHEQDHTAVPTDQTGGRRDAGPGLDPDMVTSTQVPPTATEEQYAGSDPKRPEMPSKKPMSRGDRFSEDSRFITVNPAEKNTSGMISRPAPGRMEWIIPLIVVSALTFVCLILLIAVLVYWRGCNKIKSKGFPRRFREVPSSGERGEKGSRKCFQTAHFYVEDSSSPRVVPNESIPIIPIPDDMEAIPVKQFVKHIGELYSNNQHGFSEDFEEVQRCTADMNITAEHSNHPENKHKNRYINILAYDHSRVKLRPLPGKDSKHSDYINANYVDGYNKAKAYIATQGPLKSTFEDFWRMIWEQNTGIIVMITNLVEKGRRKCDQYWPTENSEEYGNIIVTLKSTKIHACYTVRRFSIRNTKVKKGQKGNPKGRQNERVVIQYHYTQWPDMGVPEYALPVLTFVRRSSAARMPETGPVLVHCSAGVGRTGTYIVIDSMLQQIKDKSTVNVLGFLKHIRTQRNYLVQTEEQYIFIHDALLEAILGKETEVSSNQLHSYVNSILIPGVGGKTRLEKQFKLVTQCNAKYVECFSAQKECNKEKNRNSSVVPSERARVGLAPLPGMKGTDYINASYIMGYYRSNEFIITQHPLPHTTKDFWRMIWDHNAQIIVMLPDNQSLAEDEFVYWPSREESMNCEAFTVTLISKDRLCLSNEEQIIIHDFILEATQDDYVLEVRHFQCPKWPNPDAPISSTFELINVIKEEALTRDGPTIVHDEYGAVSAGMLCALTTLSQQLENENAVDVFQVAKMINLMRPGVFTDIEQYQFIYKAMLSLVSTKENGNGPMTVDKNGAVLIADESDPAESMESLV

[
  {
    "Binder": "HW-70 chimeric rabbit-human IgG1 LA/LA/PG (antibody, V domains shown, Fc-silenced (L234A/L235A/P329G) IgG1, lambda; Alexa Fluor 647-labeled in single-step flow cytometry; Cluster C-1) VH: QSLEESGGRLVTPGTPLTLTCTVSGFSLSSNAMSWVRQAPGKGLEWIGTIDGYGYTYYASWAKGRFTVSKTSTTVDLKITSPTTEDTATYFCAREIYLGSNFWGPGTLVTISS VL: SFVLTQPASVQVNLGQTVSLTCTADTLSRRYASWYQQKPGQAPVLLIYRDTSRPSGVPDRFSGSSSGNTATLTISGAQAGDEADYYCATADGSGSSYQFVFGGGTQLTVTG",
    "mAb binding (MFI)": 12300
  },
  {
    "Binder": "HW-42 chimeric rabbit-human IgG1 LA/LA/PG (antibody, V domains shown, Fc-silenced (L234A/L235A/P329G) IgG1, lambda; Alexa Fluor 647-labeled in single-step flow cytometry; Cluster C-1) VH: QSVKESEGGLFKPADTLTLTCTVSGFSLSSNEISWVRQAPGEGLEYIGIIDTGGRAYYAVWARSRSTITRNTNLNTVTLKMTSLTAADTATYFCARGGVDTEWYAFSSWGPGTLVTVPS VL: SFVLTQPASVQVNLGQTVSLTCTADTLSRRYASWYQQKPGQAPVLLIFRDTSRPSGVPDRFSGSSSGDTATLTISGAQAGDEADYYCATSDGSGSNYQYVFGGGTQLTVTG",
    "mAb binding (MFI)": 8320
  },
  {
    "Binder": "HW-25 chimeric rabbit-human IgG1 LA/LA/PG (antibody, V domains shown, Fc-silenced (L234A/L235A/P329G) IgG1, lambda; Alexa Fluor 647-labeled in single-step flow cytometry; Cluster C-1) VH: QSLEESGGRLVTPGTPLTLTCTVSGFSLSSYAMGWVRQAPGKGLEWIGIIDSRGSTYYATWAKGRFTISKTSTTVDLKITSPTTEDTATYFCAREDSYYYDSFNLWGPGTLVTVSS VL: SFVLTQPASVQVNLGQTVSLTCTADTLSRRYASWYQQKPGQAPVLLIYRDTSRPSGVPDRFSGSSSGNTATLTISGAQAGDEADYYCATSDGSGSSYQCVFGGGTQLTVTG",
    "mAb binding (MFI)": 7560
  }
]
